test system: ABCA1; assay: Cellular cholesterol efflux to apo-AI from [3H]-cholesterol-labeled J774 macrophages; format: cell-based, mouse; settings: 5 μM, 16 hours pretreatment, J774 cells, apo-AI 20 μg/ml acceptor
Give % of control (cholesterol efflux) for every item shown.

What % of control (cholesterol efflux) appears in the records for this molecule with ABCA1? Cc1nnc2c(N3CCC4(CC3)C(=O)NCN4c3ccccc3)nc(-c3ccc(O)cc3)cn12
106 % of control

Give the reported % of control (cholesterol efflux) for Cc1nnc2c(N3CCC4(CC3)C(=O)NCN4c3ccccc3)nc(-c3ccc4c(c3)OCO4)cn12 (system: ABCA1).
82 % of control

Entry Cc1nnc2n1-c1sccc1C(c1ccccc1)=NC2 , system ABCA1: what % of control (cholesterol efflux) was measured?
102 % of control

Provide value of % of control (cholesterol efflux) for this record tested with ABCA1: COc1ccc(-c2cn3c(C)nnc3c(N3CCC4(CC3)C(=O)NCN4c3ccccc3)n2)cc1
101 % of control

Enter reported % of control (cholesterol efflux) observed with ABCA1 for COc1cc(-c2cn3c(C)nnc3c(N3CCC4(CC3)C(=O)NCN4c3ccccc3)n2)cc(OC)c1OC
95 % of control

% of control (cholesterol efflux) of COc1ccc(-c2cn3c(C)nnc3c(N3CCC(C)(N(C)c4cccc(F)c4)CC3)n2)cc1 on ABCA1?
94 % of control

Form: Entry = CN(c1ccc(C(O)(C(F)(F)F)C(F)(F)F)cc1)S(=O)(=O)c1ccccc1[N+](=O)[O-] | System = ABCA1 | % of control (cholesterol efflux) = ____
185 % of control

# returns recorded % of control (cholesterol efflux) (system: ABCA1) for COc1ccc(-c2cn3c(C)nnc3c(N3CCC4(CC3)C(=O)NCN4c3ccccc3)n2)cc1OC
111 % of control

Form field: % of control (cholesterol efflux) recorded for O=S(=O)(c1ccccc1)N(CC(F)(F)F)c1ccc(C(O)(C(F)(F)F)C(F)(F)F)cc1 with ABCA1 (enter value)
177 % of control

For the record Cc1nnc2c(N3CCC4(CC3)C(=O)NCN4c3ccccc3)nc(-c3ccccc3)cn12 , what value of % of control (cholesterol efflux) is listed for ABCA1?
109 % of control

The measured values listed here are drawn from patent US6555323B2.
